biological target: G2A (Mus musculus); construct: expressed in transfected cells; host or cells: MCF 10A (human breast epithelial cells, no endogenous G2A), plasmid pEXV3 G2A.GFP; assay: Radioligand binding assay with cell homogenates of HEK 293 G2A.GFP cells; settings: radioligand 1 nM, unlabelled lipids 100 nM, HEK 293 G2A.GFP
outcome_measure: competition for binding of [3H] 16:0 LPC / [3H] SPC to G2A

                                   molecule              result
0  CCCCCCCCCCCCCCCCCC(=O)OC[C@@H](O)COP(=O)([O-])OCC[N+](C)(C)C [18:0 LPC]  potent competitors
1  CCCCCCCCCCCCCCCCOC[C@H](COP(=O)([O-])OCC[N+](C)(C)C)OC(C)=O [PAF]                 not
2  CCCCCCCCCCCCCCCC(=O)OC[C@@H](O)COP(=O)([O-])OCC[N+](C)(C)C [16:0 LPC]  potent competitors
3  CCCCCCCCCCCCC/C=C/[C@@H](O)[C@@H](N)COP(=O)(O)O [S-1-P]                 not
4  CCCCCCCCCCCCCCCCOC[C@@H](O)COP(=O)([O-])OCC[N+](C)(C)C [lyso-PAF]                 not

###

Molecular target: G2A (Mus musculus)
Sequence (Q9Z282 1-382): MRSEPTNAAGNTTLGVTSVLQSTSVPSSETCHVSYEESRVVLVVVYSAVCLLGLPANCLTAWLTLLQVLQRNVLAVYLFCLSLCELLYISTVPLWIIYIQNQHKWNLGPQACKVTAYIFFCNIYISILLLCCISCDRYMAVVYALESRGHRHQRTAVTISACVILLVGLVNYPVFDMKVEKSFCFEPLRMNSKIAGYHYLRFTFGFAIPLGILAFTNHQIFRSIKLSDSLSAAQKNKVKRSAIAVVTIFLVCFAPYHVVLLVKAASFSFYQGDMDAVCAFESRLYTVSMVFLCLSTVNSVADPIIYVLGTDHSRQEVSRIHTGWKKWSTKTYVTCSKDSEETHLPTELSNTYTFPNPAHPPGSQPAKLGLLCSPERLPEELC
Assay: Calcium assay ([Ca2+]i, Fura-2) in G2A.GFP transfected MCF 10A cells
Settings: G2A.GFP transfected MCF 10A cells, 1 mM EGTA in buffer; read-out: EC50 of dose-dependent increase in [Ca2+]i
outcome_measure: EC50

>>> df
                               smiles_entry   result
0  CCCCCCCCCCCCC/C=C/[C@@H](O)[C@@H](N)COP(=O)([O-])OCC[N+](C)(C)C  ~0.4 µM

###

target: G2A (Mus musculus, UniProt Q9Z282)
pKd: −log10 of the molar value.
outcome_measure: pKd

>>> df
                               smiles_entry  result
0  CCCCCCCCCCCCC/C=C/[C@@H](O)[C@@H](N)COP(=O)([O-])OCC[N+](C)(C)C    6.64
